Measured viability, T/C accompanies every entry in the list below.
- Tested on: 677734-321-R-J1-PDC complex spheroid viability
- assay remarks: Anticancer human tumor 677734-321-R-J1-PDC patient-derived soft tissue sarcoma cell line growth inhibition [POLQ]
- condition description: second compound 0.316 µM; first compound 3.16 µM; active compounds read low
Provide only the numeric value, understood in %.

Would you please look over these solved cases?
compound | viability, T/C, %
COc1cc2cc(C(=O)CCC(=O)O)sc2cc1OC + COC1C(OC(N)=O)C(O)C(Oc2ccc3c(O)c(NC(=O)c4ccc(O)c(CC=C(C)C)c4)c(=O)oc3c2C)OC1(C)C | 111
C#Cc1c(F)ccc2cc(O)cc(-c3ncc4c(N5CC6CCC(C5)N6)nc(OCC56CCCN5CC(F)C6)nc4c3F)c12 (stereo not given) + Cc1cccc(N(C)C(=O)C2C(O)CCN2c2nc(C)cc(C(F)(F)F)c2C#N)c1 | 110
CCc1cc2c(N3CCc4c(cc(Cn5ccnc5)cc4-c4cn(C)nc4C(F)(F)F)C3=O)ccnc2c(OC)n1 + COC1C(OC(N)=O)C(O)C(Oc2ccc3c(O)c(NC(=O)c4ccc(O)c(CC=C(C)C)c4)c(=O)oc3c2C)OC1(C)C | 84.8
CC1COCCN1c1cc(C2(S(C)(=N)=O)CC2)nc(-c2ccnc3[nH]ccc23)n1 (stereo not given) + COC1C(OC(N)=O)C(O)C(Oc2ccc3c(O)c(NC(=O)c4ccc(O)c(CC=C(C)C)c4)c(=O)oc3c2C)OC1(C)C | 49.5

Ask: Return viability, T/C for the following compound: O=C(Nc1ccc(O)c(NS(=O)(=O)c2ccc(F)cc2)c1)c1ccc(-c2ccccc2)cc1 + Nc1ccc(C#CCN(C(=O)Cc2ncc(C(F)(F)F)cc2C(F)(F)F)c2ccc(F)cc2)nn1
Reply: 53.5

###

- Test system: 677734-321-R-J1-PDC complex spheroid viability
- assay remarks: Anticancer human tumor 677734-321-R-J1-PDC cell line growth inhibition [POLQ];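 also: spheroids exposed to compounds for one week; 100% = vehicle DMSO treated spheroids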
- condition description: second compound 0.316 µM; first compound 0.0316 µM; active compounds read low
Label Met when viability, T/C is strictly below 90%; at or above that, label Not met.

Completed entries (count: 4):
compound | category
C=CC(=O)N1CCN(c2nc(=O)n(-c3c(C)ccnc3C(C)C)c3nc(-c4c(O)cccc4F)c(F)cc23)C(C)C1 (stereo not given) + Nc1ccc(C#CCN(C(=O)Cc2ncc(C(F)(F)F)cc2C(F)(F)F)c2ccc(F)cc2)nn1 | Not met
Cn1ncnc1[C@H]1c2n[nH]c(=O)c3cc(F)cc(c23)N[C@@H]1c1ccc(F)cc1 + Nc1ccc(C#CCN(C(=O)Cc2ncc(C(F)(F)F)cc2C(F)(F)F)c2ccc(F)cc2)nn1 | Met
O=c1[nH]cc(F)c(=O)[nH]1 + Nc1ccc(C#CCN(C(=O)Cc2ncc(C(F)(F)F)cc2C(F)(F)F)c2ccc(F)cc2)nn1 | Not met
Nc1ccn(C2OC(CO)C(O)C2(F)F)c(=O)n1 (stereo not given) + COC1C(OC(N)=O)C(O)C(Oc2ccc3c(O)c(NC(=O)c4ccc(O)c(CC=C(C)C)c4)c(=O)oc3c2C)OC1(C)C | Met

Ask: Take the compound O=C(Nc1ccc(O)c(NS(=O)(=O)c2ccc(F)cc2)c1)c1ccc(-c2ccccc2)cc1 + Cc1cccc(N(C)C(=O)C2C(O)CCN2c2nc(C)cc(C(F)(F)F)c2C#N)c1 and say whether its viability, T/C is less than 90%.
Reply: Not met
